# pEC50 listing for each entry below
- Target desc: PAR2 (Homo sapiens)
- Measurement protocol: PAR2 activation (agonist) by intracellular calcium mobilisation in HT29 cells
- Type: cell-based
- Design: Agonists of Ca^2+ release in HT29 cells; endogenous in cells; host or cells: HT29 (human cell line, cultured per ATCC information)
- Conditions: Fluo-3 fluorescence, read-out: EC50, agonist or partial agonist of Ca2+ release in HT29 cells
pEC50: −log10 of the molar value.

Query: Entry CC[C@H](C)[C@H](NC(=O)[C@H](CC1CCCCC1)NC(=O)c1ccno1)C(=O)N1CCC(NC(C)=O)(c2ccccc2)CC1 [Compound 12] : reported pEC50 = ?
Result: 5.22 to 6.00

Query: Entry CC[C@H](C)[C@H](NC(=O)[C@H](CC1CCCCC1)NC(=O)c1ccno1)C(=O)N1CCc2cc(OC)c(OC)cc2C1 [Compound 11] : reported pEC50 = ?
Result: 5.00 to 5.30

Query: Entry CC[C@H](C)[C@H](NC(=O)[C@H](CC1CCCCC1)NC(=O)c1ccno1)C(=O)NCc1ccccc1Cl [Compound 5] : reported pEC50 = ?
Result: 5.00

Proceed to the following item.
Query: Entry CC[C@H](C)[C@H](NC(=O)[C@H](CC1CCCCC1)NC(=O)c1ccno1)C(=O)N1CCC2(CC1)c1ccccc1C(O)C2O (stereo partly shown) [Compound 16] : reported pEC50 = ?
Result: 5.15 to 5.30

====

- Target desc: UniProtKB P55085
- Sequence (P55085 26-397): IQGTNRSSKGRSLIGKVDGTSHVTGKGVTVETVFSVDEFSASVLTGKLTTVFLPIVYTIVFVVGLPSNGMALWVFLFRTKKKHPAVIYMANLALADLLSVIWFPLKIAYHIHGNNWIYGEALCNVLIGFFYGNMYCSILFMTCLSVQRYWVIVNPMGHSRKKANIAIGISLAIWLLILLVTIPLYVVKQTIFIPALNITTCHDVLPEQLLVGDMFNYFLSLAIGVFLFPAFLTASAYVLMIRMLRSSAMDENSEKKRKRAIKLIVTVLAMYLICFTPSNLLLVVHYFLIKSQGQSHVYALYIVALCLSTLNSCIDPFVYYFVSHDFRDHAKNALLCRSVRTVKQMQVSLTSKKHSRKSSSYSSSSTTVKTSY
- Measurement protocol: PAR2 agonist inhibition (antagonism) by intracellular Ca2+ release in HT29 cells
- Format: cell-based
- Design: Agonists of Ca^2+ release in HT29 cells; endogenous in cells; host or cells: HT29 (human cell line, cultured per ATCC information)
- Conditions: HT29 cells; 30 min pre-incubation, then PAR2 agonist (1 μM 2f-LIGRLO-NH2); read-out: IC50, inhibition of Ca2+ release in HT29 cells
pIC50: −log10 of the molar value.
Readout label: pIC50

Query: Short answer please: pIC50, UniProtKB P55085, entry CC[C@H](C)[C@H](NC(=O)[C@H](CC1CCCCC1)NC(=O)c1ccno1)C(=O)N1CCC2(CCc3ccccc3O2)CC1 [Compound 37]
Result: 5.00 to 5.30

Query: Short answer please: pIC50, UniProtKB P55085, entry CC[C@H](C)[C@H](NC(=O)[C@H](CC1CCCCC1)NC(=O)c1ccno1)C(=O)N1CCC(c2cc(OC)ccc2OC)CC1 [Compound 32]
Result: 5.00 to 5.30

Query: Short answer please: pIC50, UniProtKB P55085, entry CC[C@H](C)[C@H](NC(=O)[C@H](CC1CCCCC1)NC(=O)c1ccno1)C(=O)NCc1ccccc1C(F)(F)F [Compound 28]
Result: 5.70 to 6.00
